Origin of the recorded values: patent US10093660B2

# Target Entity: MNK2a (Homo sapiens (Human))
# Sequence (Q9HBH9 whole entry): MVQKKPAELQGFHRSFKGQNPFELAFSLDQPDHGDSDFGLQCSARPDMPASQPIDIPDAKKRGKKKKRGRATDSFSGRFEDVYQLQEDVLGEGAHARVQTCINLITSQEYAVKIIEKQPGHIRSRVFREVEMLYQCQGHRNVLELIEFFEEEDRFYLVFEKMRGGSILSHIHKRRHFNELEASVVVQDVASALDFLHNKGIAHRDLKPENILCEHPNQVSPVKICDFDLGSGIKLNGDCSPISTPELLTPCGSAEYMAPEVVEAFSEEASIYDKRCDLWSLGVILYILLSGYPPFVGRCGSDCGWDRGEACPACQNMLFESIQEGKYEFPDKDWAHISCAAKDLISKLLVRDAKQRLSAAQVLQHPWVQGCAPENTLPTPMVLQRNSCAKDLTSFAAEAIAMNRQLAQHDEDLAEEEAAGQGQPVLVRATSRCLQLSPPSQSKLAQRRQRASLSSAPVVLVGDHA
# Assay Explanation: MNK2a in vitro kinase assay (Assay 2), ADP-Glo
# Type: biochemical
# Run Parameters: assay 2; read-out: MNK2 IC50
Property Label: IC50 (nM)

CO[C@H]1COC[C@H]1Oc1ncccc1Nc1ncnc2cc(N=S3(=O)CCCC3)cc(C)c12 (single isomer, unassigned) [Example 14.1]
1

1: Cc1cc(N=S(C)(C)=O)cc2ncnc(Nc3ccc(F)cc3O[C@H]3COC[C@H]3OCCF)c12 (racemic)
2: Cc1cc(N=S2(=O)CCCC2)cc2ncnc(Nc3ccc(Cl)cc3O[C@H]3COC[C@@H]3O)c12
Sorting by IC50 in descending order, would 1 or 2 appear first? Returns: label corresponding to the selected item. 2

1: Cc1cc(N=S2(=O)CCCC2)cc2ncnc(Nc3cccnc3O[C@@H]3CNC[C@H]3O)c12
2: O=S1(=Nc2cc(F)c3c(Nc4ccc(F)cc4O[C@H]4COC[C@@H]4O)ncnc3c2)CCC1
Of the two listed items, 1 and 2 , which carries the larger IC50 figure? Refer to your chosen entry by its label in the reply. 1
(1: 29 nM, 2: 2 nM)
